# Test system: wheat (variety Hereward)
# TEST_SUMMARY: Pre-emergence safening on wheat, seed treated with safener, general crop injury
# Type: in vivo
# CONDITION_PARAMETERS: 250 g/ha compound of formula (I) sprayed the day after planting; seed without safener; evaluated after 21 days; mean % visual phytotoxicity of two replicates
Some compounds, each annotated with its measured Percentage damage, untreated wheat.
MEASURED_QUANTITY: Percentage damage, untreated wheat (%)

COMPOUND: CCOC(=O)N(c1ccccc1CN1CCCN(C)S1(=O)=O)S(=O)(=O)C(F)(F)F
STUDY_TARGET: wheat (variety Hereward)
OBSERVED_VALUE: 40

COMPOUND: CCC(=O)N(c1ccccc1CN1CCCC(SC)C1=O)S(=O)(=O)C(F)(F)F (stereo not shown)
STUDY_TARGET: wheat (variety Hereward)
OBSERVED_VALUE: 40

COMPOUND: CC1(C)CC(=O)N(Cc2ccccc2N(C(=O)OCCl)S(=O)(=O)C(F)(F)F)O1
STUDY_TARGET: wheat (variety Hereward)
OBSERVED_VALUE: 20

COMPOUND: O=C1CCCCN1Cc1ccccc1NS(=O)(=O)C(F)(F)F
STUDY_TARGET: wheat (variety Hereward)
OBSERVED_VALUE: 45

COMPOUND: O=C1COCCN1Cc1ccccc1NS(=O)(=O)C(F)(F)F
STUDY_TARGET: wheat (variety Hereward)
OBSERVED_VALUE: 35

COMPOUND: O=C1NCCCN1Cc1ccccc1NS(=O)(=O)C(F)(F)F
STUDY_TARGET: wheat (variety Hereward)
OBSERVED_VALUE: 40

COMPOUND: CCOC(=O)N(c1ccccc1CN1CCCCC1=O)S(=O)(=O)C(F)(F)F
STUDY_TARGET: wheat (variety Hereward)
OBSERVED_VALUE: 50

COMPOUND: CCOC(=O)N(c1ccccc1CN1CCC(C)(C(F)(F)F)OC1=O)S(=O)(=O)C(F)(F)F (stereo not shown)
STUDY_TARGET: wheat (variety Hereward)
OBSERVED_VALUE: 15

COMPOUND: O=C1CCCN1Cc1ccccc1NS(=O)(=O)C(F)(F)F
STUDY_TARGET: wheat (variety Hereward)
OBSERVED_VALUE: 35

COMPOUND: CC1(C)CC(=O)N(Cc2ccccc2NS(=O)(=O)C(F)(F)F)O1
STUDY_TARGET: wheat (variety Hereward)
OBSERVED_VALUE: 25

COMPOUND: CN1CCCN(Cc2ccccc2N(C(=O)OCCl)S(=O)(=O)C(F)(F)F)S1(=O)=O
STUDY_TARGET: wheat (variety Hereward)
OBSERVED_VALUE: 10

COMPOUND: CCOC(=O)N(c1ccccc1CN1CCCCS1(=O)=O)S(=O)(=O)C(F)(F)F
STUDY_TARGET: wheat (variety Hereward)
OBSERVED_VALUE: 25

COMPOUND: CC1(C)CN(Cc2ccccc2NS(=O)(=O)C(F)(F)F)C(=O)O1
STUDY_TARGET: wheat (variety Hereward)
OBSERVED_VALUE: 40

COMPOUND: CC1(C(F)(F)F)CCN(Cc2ccccc2N(C(=O)OCCl)S(=O)(=O)C(F)(F)F)C(=O)O1 (stereo not shown)
STUDY_TARGET: wheat (variety Hereward)
OBSERVED_VALUE: 10

COMPOUND: CCCC(=O)N(c1ccccc1CN1CCCCC1=O)S(=O)(=O)C(F)(F)F
STUDY_TARGET: wheat (variety Hereward)
OBSERVED_VALUE: 30

COMPOUND: CC(C)COC(=O)N(c1ccccc1CN1CCCN(C)S1(=O)=O)S(=O)(=O)C(F)(F)F
STUDY_TARGET: wheat (variety Hereward)
OBSERVED_VALUE: 25

###

# System: wheat (variety Hereward)
# TEST_SUMMARY: Pre-emergence safening on wheat, seed treated with safener, general crop injury
# Type: in vivo
# CONDITION_PARAMETERS: 250 g/ha compound of formula (I) sprayed the day after planting; seed treated with cloquintocet-mexyl at 0.25 g per kg seed; evaluated after 21 days; mean of two replicates
# Method: Maize (variety Claxxon) and wheat (variety Hereward) seeds were treated with a herbicide safener at a rate of 0.2 g safener per kg seed (maize) and 0.25 g safener per kg seed (wheat) prior to sowing. […] The test plants were then grown on in a glasshouse under controlled conditions (at 24/18° C. day/night; 16 hours light; 65% humidity) and watered twice a day. After 21 days the test was evaluated for general crop injury (100% equals total damage to plant; 0% equals no damage to plant). […]
MEASURED_QUANTITY: Percentage damage, wheat treated with cloquintocet-mexyl (%)

COMPOUND: CCOC(=O)N(c1ccccc1CN1CCCCC1=O)S(=O)(=O)C(F)(F)F
STUDY_TARGET: wheat (variety Hereward)
OBSERVED_VALUE: 30
//
COMPOUND: CN1CCCN(Cc2ccccc2N(C(=O)OCCl)S(=O)(=O)C(F)(F)F)S1(=O)=O
STUDY_TARGET: wheat (variety Hereward)
OBSERVED_VALUE: 5
//
COMPOUND: CC1(C)CC(=O)N(Cc2ccccc2NS(=O)(=O)C(F)(F)F)O1
STUDY_TARGET: wheat (variety Hereward)
OBSERVED_VALUE: 15
//
COMPOUND: CC(C)COC(=O)N(c1ccccc1CN1CCCN(C)S1(=O)=O)S(=O)(=O)C(F)(F)F
STUDY_TARGET: wheat (variety Hereward)
OBSERVED_VALUE: 5
//
COMPOUND: CC1(C(F)(F)F)CCN(Cc2ccccc2N(C(=O)OCCl)S(=O)(=O)C(F)(F)F)C(=O)O1 (stereo not shown)
STUDY_TARGET: wheat (variety Hereward)
OBSERVED_VALUE: 0
//
COMPOUND: CCOC(=O)N(c1ccccc1CN1CCCCS1(=O)=O)S(=O)(=O)C(F)(F)F
STUDY_TARGET: wheat (variety Hereward)
OBSERVED_VALUE: 5
//
COMPOUND: CC1(C)CN(Cc2ccccc2NS(=O)(=O)C(F)(F)F)C(=O)O1
STUDY_TARGET: wheat (variety Hereward)
OBSERVED_VALUE: 15

###

# System: wheat (variety Hereward)
# TEST_SUMMARY: Pre-emergence safening on wheat, seed treated with safener, general crop injury
# Type: in vivo
# CONDITION_PARAMETERS: 250 g/ha compound of formula (I) sprayed the day after planting; seed treated with cloquintocet-mexyl at 0.25 g per kg seed; evaluated after 21 days; mean of two replicates
MEASURED_QUANTITY: Percentage damage, wheat treated with cloquintocet-mexyl (%)

COMPOUND: CC1(C)CC(=O)N(Cc2ccccc2N(C(=O)OCCl)S(=O)(=O)C(F)(F)F)O1
OBSERVED_VALUE: 5
--
COMPOUND: CCCC(=O)N(c1ccccc1CN1CCCCC1=O)S(=O)(=O)C(F)(F)F
OBSERVED_VALUE: 10
--
COMPOUND: CCOC(=O)N(c1ccccc1CN1CCCN(C)S1(=O)=O)S(=O)(=O)C(F)(F)F
OBSERVED_VALUE: 17.5
--
COMPOUND: CCC(=O)N(c1ccccc1CN1CCCC(SC)C1=O)S(=O)(=O)C(F)(F)F (stereo not shown)
OBSERVED_VALUE: 15

###

# Test system: Maize (variety Claxxon)
# TEST_SUMMARY: Pre-emergence safening on corn, seed treated with safener, general crop injury
# Format: in vivo
# CONDITION_PARAMETERS: 250 g/ha compound of formula (I) sprayed the day after planting; seed treated with safener A at 0.2 g per kg seed; evaluated after 21 days; mean of two replicates
Some compounds, each annotated with its measured Percentage damage, corn treated with safener A.
MEASURED_QUANTITY: Percentage damage, corn treated with safener A (%)

ENTRY_SMILES: CCOC(=O)N(c1ccccc1CN1CCCCS1(=O)=O)S(=O)(=O)C(F)(F)F
SCALE_UNIT: %
OBSERVED_VALUE: 10
//
ENTRY_SMILES: O=C1COCCN1Cc1ccccc1NS(=O)(=O)C(F)(F)F
SCALE_UNIT: %
OBSERVED_VALUE: 5
//
ENTRY_SMILES: CC1(C)CN(Cc2ccccc2NS(=O)(=O)C(F)(F)F)C(=O)O1
SCALE_UNIT: %
OBSERVED_VALUE: 15
//
ENTRY_SMILES: CN1CCCN(Cc2ccccc2N(C(=O)OCCl)S(=O)(=O)C(F)(F)F)S1(=O)=O
SCALE_UNIT: %
OBSERVED_VALUE: 0
//
ENTRY_SMILES: CCOC(=O)N(c1ccccc1CN1CCCCC1=O)S(=O)(=O)C(F)(F)F
SCALE_UNIT: %
OBSERVED_VALUE: 10
//
ENTRY_SMILES: CCOC(=O)N(c1ccccc1CN1CCCN(C)S1(=O)=O)S(=O)(=O)C(F)(F)F
SCALE_UNIT: %
OBSERVED_VALUE: 0
//
ENTRY_SMILES: O=C1CCCN1Cc1ccccc1NS(=O)(=O)C(F)(F)F
SCALE_UNIT: %
OBSERVED_VALUE: 5
//
ENTRY_SMILES: CC(C)COC(=O)N(c1ccccc1CN1CCCN(C)S1(=O)=O)S(=O)(=O)C(F)(F)F
SCALE_UNIT: %
OBSERVED_VALUE: 2.5
//
ENTRY_SMILES: O=C1NCCCN1Cc1ccccc1NS(=O)(=O)C(F)(F)F
SCALE_UNIT: %
OBSERVED_VALUE: 5
